# Tested on: NCI-H522 lung
# procedureText: NCI tumour cell line growth inhibition, 48 h
propertyMeasured: TGI (µM)
Lab book: enter the figure in µM, no units written.

See these solved cases before continuing.
CC(CO)[C@H]1OC(=O)C=C2[C@@]13O[C@@H]3[C@H]1OC(=O)[C@@]3(C)[C@H]4O[C@H]4C[C@@]2(C)[C@@H]13 (stereo not given in full) = 5.38
O=C(OC12CC3CC(CC(C3)C1)C2)c1ccc(NCc2cc(O)ccc2O)cc1 = 0.237
Nc1cc2c3c(cccc3c1)NC2=O = 74
CCOc1ccc(NCC2CC/C(=C\C=C\c3ccccc3)C2=O)cc1 (stereo not given) = 32.3
CSc1ccc(C2=Nn3c(nnc3-c3ccc(F)c(Cl)c3)SC2)cc1 = 21.4

The value of TGI measured for the compound CC(C)c1cccc(C(C)C)c1NC(=O)C(=O)C(C(=O)c1ccccc1-c1ccccc1)C1OC(=O)c2ccccc21 (stereo not given) turned out to be 30.5

The value of TGI measured for the compound Clc1ccc(OCc2nnc(COc3ccc(OCc4nnc(COc5ccc(Cl)cc5Cl)o4)c(Cl)c3)o2)c(Cl)c1 turned out to be 38

The value of TGI measured for the compound CC1(C)CCC(C)(C)c2cc(C(=O)Nc3ccc(C(=O)O)cc3)ccc21 turned out to be 70.6

The value of TGI measured for the compound O=[N+]([O-])/C(Cl)=C(/C(Cl)=C(Cl)Cl)N1CCCCC1 turned out to be 23.2

The value of TGI measured for the compound COc1cc2c3c(cc(Cl)nc3c1OC)C(=O)C(=O)N2 turned out to be 14.9

The value of TGI measured for the compound CC(=O)OC1CC2(O)C(CCC3(C)C(c4ccc(=O)oc4)CCC32O)C2(C)C1=CC(O)C1OC12 (stereo not given) turned out to be 0.0784
